assayed_system: Nav1.7 sodium channels (human SCN9A gene) (Homo sapiens (Human), UniProt Q15858)
Sequence (Q15858 whole entry): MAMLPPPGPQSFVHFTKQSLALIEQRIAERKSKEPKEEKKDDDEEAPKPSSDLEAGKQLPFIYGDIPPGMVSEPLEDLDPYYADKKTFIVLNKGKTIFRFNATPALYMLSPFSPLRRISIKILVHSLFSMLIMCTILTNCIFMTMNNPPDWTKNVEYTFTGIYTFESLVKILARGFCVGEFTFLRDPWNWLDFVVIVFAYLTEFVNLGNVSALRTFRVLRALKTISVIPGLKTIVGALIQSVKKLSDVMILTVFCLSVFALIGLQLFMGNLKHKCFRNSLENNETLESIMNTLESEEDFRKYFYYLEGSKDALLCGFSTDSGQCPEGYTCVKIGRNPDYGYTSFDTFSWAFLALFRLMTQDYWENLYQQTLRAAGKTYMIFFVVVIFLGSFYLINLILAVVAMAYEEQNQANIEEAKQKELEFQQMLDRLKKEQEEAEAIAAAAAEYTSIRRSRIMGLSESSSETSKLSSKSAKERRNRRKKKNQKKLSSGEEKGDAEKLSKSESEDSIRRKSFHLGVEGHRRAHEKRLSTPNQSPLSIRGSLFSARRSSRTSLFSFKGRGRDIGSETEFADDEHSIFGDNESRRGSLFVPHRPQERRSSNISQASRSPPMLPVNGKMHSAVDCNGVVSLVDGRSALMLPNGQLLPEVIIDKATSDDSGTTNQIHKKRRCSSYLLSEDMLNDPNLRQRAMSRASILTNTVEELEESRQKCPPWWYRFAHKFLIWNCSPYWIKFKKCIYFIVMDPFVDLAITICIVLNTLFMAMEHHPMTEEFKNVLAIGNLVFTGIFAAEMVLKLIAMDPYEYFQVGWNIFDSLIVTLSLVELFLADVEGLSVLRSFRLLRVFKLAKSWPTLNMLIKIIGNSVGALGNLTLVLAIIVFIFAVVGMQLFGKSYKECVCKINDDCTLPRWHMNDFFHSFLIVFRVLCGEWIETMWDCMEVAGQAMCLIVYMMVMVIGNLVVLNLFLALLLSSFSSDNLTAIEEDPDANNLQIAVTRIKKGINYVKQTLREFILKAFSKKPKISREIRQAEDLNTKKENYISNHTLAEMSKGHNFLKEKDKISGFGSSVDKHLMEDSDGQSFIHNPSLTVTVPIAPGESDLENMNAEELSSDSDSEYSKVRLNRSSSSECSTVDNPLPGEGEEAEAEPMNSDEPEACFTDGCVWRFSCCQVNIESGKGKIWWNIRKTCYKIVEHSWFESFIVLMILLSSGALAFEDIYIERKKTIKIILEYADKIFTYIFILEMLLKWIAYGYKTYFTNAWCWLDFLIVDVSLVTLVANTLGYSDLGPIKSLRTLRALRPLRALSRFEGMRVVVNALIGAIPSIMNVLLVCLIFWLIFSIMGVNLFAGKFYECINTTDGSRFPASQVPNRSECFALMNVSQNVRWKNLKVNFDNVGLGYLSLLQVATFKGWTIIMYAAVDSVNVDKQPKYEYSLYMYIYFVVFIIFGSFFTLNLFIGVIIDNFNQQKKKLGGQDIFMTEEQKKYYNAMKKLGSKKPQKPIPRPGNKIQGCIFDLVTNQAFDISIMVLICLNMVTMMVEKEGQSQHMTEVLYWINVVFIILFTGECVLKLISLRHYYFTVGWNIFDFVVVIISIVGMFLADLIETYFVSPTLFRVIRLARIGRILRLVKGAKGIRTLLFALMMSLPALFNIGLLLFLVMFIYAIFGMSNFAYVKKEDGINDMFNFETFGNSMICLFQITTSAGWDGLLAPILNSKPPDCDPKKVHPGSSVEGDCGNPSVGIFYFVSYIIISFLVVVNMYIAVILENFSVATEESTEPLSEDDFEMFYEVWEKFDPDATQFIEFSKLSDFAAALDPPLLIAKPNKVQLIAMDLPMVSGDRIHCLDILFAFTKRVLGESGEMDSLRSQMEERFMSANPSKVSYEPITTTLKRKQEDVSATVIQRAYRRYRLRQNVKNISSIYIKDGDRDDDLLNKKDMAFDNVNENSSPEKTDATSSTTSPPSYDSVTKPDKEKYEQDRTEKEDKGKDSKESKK
experimental_protocol: Automated patch clamp (IonWorks Barracuda) of Nav1.7 stably expressed in CHO cells
Assay type: cell-based
measurement_context: inactivated state block, CHO cells; read-out: Inactivated state IC50
Provide the reported IC50 of each item.

Here is how some molecules turned out for IC50.
| molecule | IC50 |
| --- | --- |
| COC[C@@H](O)CNC1CN(c2nnc(-c3cccc(Cl)c3Cl)c(N)n2)C1 | > 300 µM |
| COCCS(=O)(=O)CCOCCNc1nnc(-c2cccc(Cl)c2Cl)c(N)n1 | 100 µM |
| COC[C@@H](O)CN1CCN(c2nnc(-c3cccc(Cl)c3Cl)c(N)n2)[C@H](CO)C1 | > 300 µM |

Give IC50 for each listed item.
1. CC(CO)N1CCN(c2nnc(-c3cccc(Cl)c3Cl)c(N)n2)CC1 (stereo not drawn)
2. COCCOCCOCCN1CCN(c2nnc(-c3cc(F)cc(Cl)c3Cl)c(N)n2)CC1
3. CC(CS(=O)(=O)CCO)Nc1nnc(-c2cccc(Cl)c2Cl)c(N)n1 (stereo not drawn)
4. COCCNCCOCCNc1nnc(-c2cccc(Cl)c2Cl)c(N)n1

66.6 µM
< 50 µM
> 300 µM
214 µM

Give IC50 for each listed item.
1. COCCOCCOCC(C)CNc1nnc(-c2cccc(Cl)c2Cl)c(N)n1 (stereo not drawn)
2. Nc1nc(N2CCN(C[C@H](O)COCC3CC3)CC2)nnc1-c1cccc(Cl)c1Cl

< 50 µM
< 50 µM

Data origin: patent US10189859B2
